Reported E max, induction of CYP2B6 mRNA, HepaRG is given for each of the following compounds.
Tested on: CYP2B6 mRNA
Experiment: CYP2B6 mRNA induction in HepaRG wild-type cells (real-time PCR)
Format: in vitro ADME, human
Conditions: E max ± SD
Just the number, please, no unit attached.

>  <COMPOUND>
NC(=O)N1c2ccccc2C=Cc2ccccc21 [Carbamazepine, carbamazepine]

>  <MEASURED RESULT>
10.7

$$$$
>  <COMPOUND>
CO[C@H]1/C=C/O[C@@]2(C)Oc3c(C)c(O)c4c(O)c(c(/C=N/N5CCN(C)CC5)c(O)c4c3C2=O)NC(=O)/C(C)=C\C=C\[C@H](C)[C@H](O)[C@@H](C)[C@@H](O)[C@@H](C)[C@H](OC(C)=O)[C@@H]1C

>  <MEASURED RESULT>
5.2

$$$$
>  <COMPOUND>
CCC1(c2ccccc2)C(=O)NC(=O)NC1=O

>  <MEASURED RESULT>
68.9

$$$$

Challenge: Entry under review: Clc1ccc(-c2nc3sccn3c2C=NOCc2ccc(Cl)c(Cl)c2)cc1 . Reported E max, induction of CYP2B6 mRNA, HepaRG?
Response given: 14.2

Challenge: Requested field: E max, induction of CYP2B6 mRNA, HepaRG. Item: O=C1NC(=O)C(c2ccccc2)(c2ccccc2)N1
Response given: 14.2

Reference source for all entries: paper PMC5045942
